Below, each entry is listed alongside its reported growth.
system: K-562 leukemia; test: NCI-60 one-dose screen, 48 h (100 = growth as untreated, 0 = no growth, -100 = all killed); settings: 10 µM unless noted
Compounds without any hit were thinned out: in the full panel of roughly 83,000, 20% have a hit.
reportedMetric: growth (%)

# structureNotation, measurementTarget, experimentalValue
measured = [
    ("NC(=O)c1c(NC(=S)Nc2ccc(OC(F)(F)F)cc2)sc2c1CCC1(C2)OCCO1", "K-562 leukemia", 94.6),
    ("CC(C)(C)n1cc(-c2ccnc(NCCCNS(=O)(=O)c3ccc(C(F)(F)F)cc3)c2)c(-c2cccc(O)c2)n1", "K-562 leukemia", 3),
    ("C=C(C)[C@@H]1C[C@@H]2Cc3ccc(Cl)c(C)c3N1O2", "K-562 leukemia", 91.3),
    ("COc1cc(NC(N)=NCCC(C)(C)c2ccc(C(F)(F)F)cc2)ncc1C#N", "K-562 leukemia", -18.1),
    ("CC1=NC2=CC=CC3=NC(C(Cl)(Cl)Cl)=NC(=N1)N23", "K-562 leukemia", 80.2),
]
